System: TK-10 renal
Experiment: NCI tumour cell line growth inhibition, 48 h; in the data active = GI50 below about 0.43 µM; inactive = the rest
Classes to choose from: 1 (yes) = active, 0 (no) = inactive

Field: example entries. Status: answers known.
molecule="CC(=O)OC1C2(CC3N4C(=O)C5(CO)SSC4(CC31O)C(=O)N5C)OC(C)C(C)(C)C2=O (centres undefined)" label="0 (no)"
molecule=COc1ccc2c(c1)C(=O)c1c-2n(CCCN2CCOCC2)c(=O)c2ccccc12 label="0 (no)"
molecule=Cc1cn2c(/C=N/N/C(N)=N\N)c(-c3ccc(Cl)c([N+](=O)[O-])c3)nc2s1 label="0 (no)"
molecule=NCc1ccc(-n2c(-c3nonc3N)nc3cnccc32)cc1 label="1 (yes)"
molecule="CC(=O)C1=C([O-])C(C)OC1=O.CC(=O)C1=C([O-])C(C)OC1=O.[NH-]C1CCCC[C@H]1[NH-].[Pt+4] (centres undefined)" label="0 (no)"

Recorded call for CN(C)c1ccc(N=Nc2c([O-])ccc3ccccc23)cc1.[C-]#[O+].[C-]#[O+].[Ir] ?
0 (no)

Now give it for COC(=O)[C@@H]1CCCN1C(=O)[C@@H]1CCCN1C(=O)[C@@H](Cc1c[nH]c2ccccc12)NC(=S)Nc1cc(C(F)(F)F)cc(C(F)(F)F)c1 too.
0 (no)

Now give it for CCN1C(=O)N(CC)C2C1NN=c1s/c(=C3\C(=O)N(C)c4ccccc43)c(=O)n12 (centres undefined) too.
0 (no)

Now give it for COc1ccc2c(c1)nc(N)c1c3cccnc3cn21 too.
1 (yes)
